# Tested on: Plasmodium falciparum
# test: Antiplasmodial activity against asynchronous form of Plasmodium falciparum 3D7 infected in human erythrocytes assessed as parasite growth inhibition at 10 uM after 48 hrs by SYBR green1 staining based flow cytometry relative to control
# Type: functional
# condition_details: 3D7, 48 h
Listing of recorded inhibition at 10 µM by entry.

# compound, unit_abbrev, inhibition at 10 µM
data = [
    ("COc1cc2nc(N3CCN(c4ccccc4)CC3)nc(NC3CCN(Cc4ccccc4)CC3)c2cc1OC", "%", 100),
    ("CCOC(=O)c1c(C)nc2ccccc2c1O", "%", 60.1),
    ("COc1cc2nc(NCc3ccc(F)cc3)nc(NC3CCN(C(=O)OC(C)(C)C)CC3)c2cc1OC", "%", 100),
    ("O=C(Cc1ccccc1)Nc1ccc(C(=O)NO)nc1", "%", 97.8),
    ("CCCCCCCCCCCCCCC=C(C(=O)OCC)C(=O)OCC", "%", 92.7),
    ("NC1CC1c1ccc(NC(=O)CCCCCNC(=O)c2ccc(O)c3ncccc23)cc1 (stereo not given)", "%", 96.7),
    ("O=C(CCCCSc1nc(-c2ccc3ccccc3c2)cc(=O)[nH]1)NO", "%", 97.9),
    ("NC1CC1c1ccc(NC(=O)CCCNC(=O)c2ccc(O)c3ncccc23)cc1 (stereo not given)", "%", 45.3),
    ("CC1=NN(c2ccc(C(=O)O)cc2)C(=O)/C1=C\\c1ccc(-c2cc(C)c(C)cc2[N+](=O)[O-])o1", "%", 12.8),
    ("O=C1/C(=C/c2ccc(O)c(Br)c2)CN(Cc2ccccc2)C/C1=C\\c1ccc(O)c(Br)c1", "%", 100),
    ("COc1cc2c(NC3CCN(Cc4ccccc4)CC3)nc(N3CCN(c4ccccc4)CC3)nc2cc1OCc1ccccc1", "%", 100),
    ("CC(C(=O)Nc1cccc(/N=C/c2c(O)ccc3ccccc23)c1)c1ccccc1 (stereo not given) [SALERMIDE]", "%", 72.3),
    ("CC1=C(/C=C/C(C)=C/C=C/C(C)=C/C(=O)Nc2ccccc2N)C(C)(C)CCC1", "%", 97.1),
    ("CCOC(=O)C1=CN(Cc2ccccc2)C=C(C(=O)OCC)C1c1ccccc1", "%", 97.2),
    ("c1ccc(CN2CCC(Nc3nc(N4CCN(c5ccccc5)CC4)nc4ccccc34)CC2)cc1", "%", 100),
    ("COc1cc2c(NCCNc3cccc4ccccc34)nc(N3CCN(c4ccccc4)CC3)nc2cc1OCc1ccccc1", "%", 99.6),
    ("O=c1[nH]c(SCCN2CCN(c3ccccn3)CC2)nc2ccccc12", "%", 2),
    ("Nc1ccccc1NC(=O)c1ccc(CNC(=O)OCc2cccnc2)cc1 [ENTINOSTAT]", "%", 50.9),
]

###

Item-by-item account of pIC50
# Tested on: Plasmodium falciparum
# test: Antiplasmodial activity against asynchronous form of Plasmodium falciparum 3D7 infected in human erythrocytes assessed as parasite growth inhibition after 48 hrs by SYBR green1 staining based flow cytometry
# Type: functional, organism-based
# condition_details: 3D7, 48 h
pIC50: −log10 of the molar value.

# compound, comparison_sign, pIC50
rows = [
    ("Nc1ccccc1NC(=O)c1ccc(CNC(=O)OCc2cccnc2)cc1 [ENTINOSTAT]", "<", 6.00),
    ("O=C1/C(=C/c2ccc(O)c(Br)c2)CSC/C1=C\\c1ccc(O)c(Br)c1", "=", 6.02),
    ("NC1CC1c1ccc(NC(=O)[C@H](Cc2ccccc2)NC(=O)OCc2ccccc2)cc1 (stereo not given in full)", "<", 6.00),
    ("O=C(CCCCCSc1nc(-c2ccc(-c3ccccc3)cc2)cc(=O)[nH]1)NO", "=", 7.29),
    ("O=c1nc2oc3ccc4ccccc4c3cc-2c(=O)n1-c1ccccc1", "<", 6.00),
    ("COc1cc2c(NC3CCN(Cc4ccccc4)CC3)nc(N3CCN(c4ccccc4)CC3)nc2cc1OCc1ccccc1", "=", 7.47),
    ("O=C(CCCCSc1nc(-c2ccc(Cl)cc2)cc(=O)[nH]1)NO", "=", 7.05),
    ("NC1CC1c1ccc(NC(=O)CCCCNC(=O)c2ccc(O)c3ncccc23)cc1 (stereo not given)", "<", 6.00),
]

###

# test: Stability in phosphate buffered saline at pH 7.4 assessed as parent compound remaining after 24 hrs by UV/RP-HPLC analysis
# Type: physicochemical
# condition_details: read-out: Stability
experimental_endpoint: remaining at 24 h (%)

# record_smiles, quantitative_readout
records = [
    ("COc1cc2nc(NCc3ccc(F)cc3)nc(NC3CCN(C(=O)OC(C)(C)C)CC3)c2cc1OC", 60),
]

###

# System: Plasmodium falciparum
# test: Antiplasmodial activity against asynchronous form of Plasmodium falciparum 3D7 infected in human erythrocytes assessed as parasite growth inhibition after 48 hrs by SYBR green1 staining based flow cytometry
# Assay type: functional, organism-based
# condition_details: 3D7, 48 h
Reported IC50 values for a set of molecules
experimental_endpoint: IC50 (nM)

# molecule, experimental_endpoint, unit_abbrev, comparison_sign, quantitative_readout
rows = [
    ("CCOC(=O)C1=CN(Cc2ccccc2)C=C(C(=O)OCC)C1c1ccccc1", "IC50", "nM", ">", 1000),
    ("O=C(Cc1ccccc1)Nc1ccc(C(=O)NO)nc1", "IC50", "nM", ">", 1000),
    ("O=C(/C=C/c1ccc(Cc2nnc(Cc3cccc4ccccc34)o2)cc1)NO", "IC50", "nM", "=", 244),
    ("c1ccc(CN2CCC(Nc3nc(N4CCN(c5ccccc5)CC4)nc4ccccc34)CC2)cc1", "IC50", "nM", "=", 326),
    ("c1ccc(COc2ccc3c(NC4CCN(Cc5ccccc5)CC4)nc(N4CCN(c5ccccc5)CC4)nc3c2)cc1", "IC50", "nM", "=", 66.9),
    ("COc1cc2c(NC3CCN(Cc4ccccc4)CC3)nc(N3CCN(c4ccccc4)CC3)nc2cc1O", "IC50", "nM", "=", 10.1),
    ("COc1ccc(CCN2CCC(Nc3nc(NCc4ccc(F)cc4)nc4cc(OC)c(OC)cc34)CC2)cc1", "IC50", "nM", "=", 18),
    ("CC(C)(C)OC(=O)Nc1cccc(C(=O)/C=C/c2ccc(/C=C/C(=O)NO)cc2)c1", "IC50", "nM", "=", 422),
    ("O=S(=O)(c1cccc(C(F)(F)F)c1)N1c2ccccc2-n2cccc2C1c1cccnc1 (configuration not stated)", "IC50", "nM", "=", 671),
    ("Cn1c(/C=C/C(=O)NO)ccc1/C=C/C(=O)c1cccc(Cl)c1", "IC50", "nM", ">", 1000),
    ("COc1ccc(CCN2CCC(Nc3nc(NCc4ccc(F)cc4)nc4ccccc34)CC2)cc1", "IC50", "nM", "=", 33.6),
    ("COc1ccc2c(NC3CCN(Cc4ccccc4)CC3)nc(N3CCN(c4ccccc4)CC3)nc2c1", "IC50", "nM", "=", 83),
    ("O=C(CCCCCSc1nc(-c2ccc3ccccc3c2)cc(=O)[nH]1)NO", "IC50", "nM", "=", 79.4),
    ("O=C(Cc1cccc2ccccc12)Nc1ccc(C(=O)NO)nc1", "IC50", "nM", ">", 1000),
    ("CC1=C(/C=C/C(C)=C/C=C/C(C)=C/C(=O)Nc2ccccc2N)C(C)(C)CCC1", "IC50", "nM", ">", 1000),
]

###

# test: Plasma concentration in Crl:NRMI mouse at 50 mg/kg, po administered via gavage measured after 30 mins by LC-MS/MS analysis
# Type: ADME, organism-based
Here, each record is paired with measured concentration at 0.5 h data.

# record_smiles, concentration at 0.5 h
data = [
    ("O=C(CCCCSc1nc(-c2ccc(-c3ccccc3)cc2)cc(=O)[nH]1)NO", "670 to 2430 nM"),
    ("COc1cc2c(NC3CCN(Cc4ccccc4)CC3)nc(N3CCN(c4ccccc4)CC3)nc2cc1O", "3430 to 4570 nM"),
    ("COc1cc2c(NC3CCN(Cc4ccccc4)CC3)nc(N3CCN(c4ccccc4)CC3)nc2cc1OCc1ccccc1", "380 to 940 nM"),
]

###

# Test system: Plasmodium falciparum
# test: Antiplasmodial activity against asynchronous form of Plasmodium falciparum 3D7 infected in human erythrocytes assessed as parasite growth inhibition after 48 hrs by SYBR green1 staining based flow cytometry
# Assay type: functional, organism-based
# condition_details: 3D7, 48 h

# compound, IC50
rows = [
    ("O=C(/C=C/c1ccc(NC(=O)Cc2cccc3ccccc23)cn1)NO", "10.2 to 21.1 nM"),
    ("COc1cc2c(NC3CCN(C(C)C)CC3)nc(C3CCCCC3)nc2cc1OCCCN1CCCC1", "67.9 to 68.7 nM"),
    ("c1ccc(N2CCN(c3nc(NC4CCN(Cc5ccc6ccccc6c5)CC4)c4ccccc4n3)CC2)cc1", "138 nM"),
    ("O=C1/C(=C/c2ccc(O)c(Br)c2)CN(Cc2ccccc2)C/C1=C\\c1ccc(O)c(Br)c1", "> 1000 nM"),
    ("COc1cc2nc(N3CCN(c4ccccc4)CC3)nc(NC3CCN(Cc4ccccc4)CC3)c2cc1OC", "37.8 nM"),
    ("COc1ccc2nc(N3CCN(c4ccccc4)CC3)nc(NC3CCN(Cc4ccccc4)CC3)c2c1", "52.5 nM"),
    ("c1ccc(CCN2CCC(Nc3nc(N4CCN(c5ccccc5)CC4)nc4ccccc34)CC2)cc1", "98.9 nM"),
    ("NC1CC1c1ccc(NC(=O)CCCCCNC(=O)c2ccc(O)c3ncccc23)cc1 (stereo not drawn)", "> 1000 nM"),
]
